assay_comment: yeast display, Sf9 membrane polyspecificity reagent, FACS + sequencing; frameworks hold sequencing errors
property_label: polyreactivity (PSR sort gate)

Reference set (8 entries):
{"monomer_sequence": "QVQLVESGGGLVQAGGSLRLSCAASGRIFVRYTMGWYRQAPGKERELVAAITKRGGSTYYADSVKGRFTISRDNAKNTVYLQMNSLKPEDTAVYYCATDGLGYNRPQDEYWGLGTQVTVSS", "polyreactivity (PSR sort gate)": "high polyreactivity"}
{"monomer_sequence": "QVQLVESGGGLVQAGGSLRLSCAASGSTFFFNAMGWYRQAPGKERELVAGISSSGGSTHYADSVKGRFTISRDNAKNTVYLQMNSLKPEDTAVYYCNAQQYLPSEGDYWGQGTQVTVSS", "polyreactivity (PSR sort gate)": "low polyreactivity"}
{"monomer_sequence": "QVQLEESGGGLVQAGGSLRISCAASVRTFKYYAMGWNRQAPGKETELVAAISWSGSSTSYADSVKGRFTISRDHAKNTVYLQMNSLKPEDTAVYYCAAATYRQFTGTYDYWGQGTQVTVSS", "polyreactivity (PSR sort gate)": "high polyreactivity"}
{"monomer_sequence": "QVQLVESGGGLVHAGGSLGLSCAASGSIFYEYVMGWYRQAPGKERELVATIDLNGGSTTYADSVKGRFTISRDNAKNTDYLQMNSLKPEDTAVYYCAAQTGFVSHFFWHYDYWGQGSQVTVSS", "polyreactivity (PSR sort gate)": "low polyreactivity"}
{"monomer_sequence": "QVQLVESGGGLVQAGGSLRLSCAASGLTFPTYAMGWYRQAPGKERELVAAISRIGGRTYYADSVKGRFTISRDNAKNTFYLQMNSLKPEDTAVYYCAADVIKGCVEYDYWGQGTKVTVSS", "polyreactivity (PSR sort gate)": "high polyreactivity"}
{"monomer_sequence": "QVQLVESGGGLVQAGGSLRLSCAASGIFSIYAMGRYRQAPGKERELVAAITSGGGRTYYADSVKGRFTISRDNAKNTVYLQMNSLKPEDTAVYYCARVQRGDYDYWGQGTQVTVTS", "polyreactivity (PSR sort gate)": "high polyreactivity"}
{"monomer_sequence": "QEQLQESRGGLVQAGGSLRMTCAASGYNYLAHTIGWYRQAPGKELEFVASIALGSSTYYTDSVKGSFTISRDNAKTTVYLQKNSQKPEDTAVYYCAARVGASYAHDYWGQGTQVTVSS", "polyreactivity (PSR sort gate)": "low polyreactivity"}
{"monomer_sequence": "QVQLVESGGGLVQAGGSLRLSCAASARTFVWNAMGWYRQAPGKERELVAAIDWSGGSTYYADSVKGRFTISRDNAKNTVYFQMYSLKPEDTAVYYCAVAVWNGSEYWGQGSQVTVSS", "polyreactivity (PSR sort gate)": "high polyreactivity"}

Turning now to a further record.
Query :: Form field: reported polyreactivity (PSR sort gate) of `QVQLVESGGRLVQAGGSLRLSCAASGRTFGSYAMGWFRQAPGKERELVATIRNSGGISYYADSVKGRFTISRDTAKNTVYLQMNSLKPEDTAVYDCAKLGRYGYDYWGQGTQVTVSS`
Result :: high polyreactivity

---

assay_comment: yeast display, Sf9 membrane polyspecificity reagent, FACS + sequencing; frameworks hold sequencing errors
property_label: polyreactivity (PSR sort gate)

{"monomer_sequence": "QVQLVESGGGLVQAGGSLRLSCAASGSIFGYYAMGWYRQAPGNERELVAAISRSGGSTYYADSVKGRFTISRDNAKNTVYLQMNSLKPEDTAVYYCAADDYPYGNYYWGQGTQVTVSS", "reading": "high polyreactivity"}
{"monomer_sequence": "QVQLVESGGGLVQAGGSLRLSCAASGIIYKYAMGWYRQAPGKERELVATITWSDGSTYYADSVKGRFTISRDNAKNTVYLQMNSLKPDDTAVYYCAADDYYGYDYWGQGTQVTVSS", "reading": "low polyreactivity"}
{"monomer_sequence": "QVQLVESGGGLVQAGGSLRLSCAASGSIFRSYAMGWYRQAPGKQREFVAAITGSGGRTYYADSVKGRFTISRDNAKNTVYLQMNCLKPEDTAVYYCAAALSRRYKSGGPYGFNYWGQGTQVTVSS", "reading": "high polyreactivity"}
{"monomer_sequence": "LVQLQESGGGLVQEGGSLRMSCAASGTISPGGYMGWYRQAPGKERELVASINVGGSTNYADSVKGRFTISRDNAKNTVYLQMNSLKPEDNAVYYCAVWGRNRLQLSYWGQGTQVTVSS", "reading": "low polyreactivity"}

Turning now to a further record.
Query :: Form field: reported polyreactivity (PSR sort gate) of `QVQLVESGGGLVQAGGSLRLSCAASGFTFKLYAMGWYRQAPGNEREWVAAIRRGGTTNYADSVKGRFTISRDTAKNTVYLQMNSLKPEDTAVYYCAADGWYPGVYYPYTEFDYWGQGTQVTVSS`
Result :: high polyreactivity

---

assay_comment: yeast display, Sf9 membrane polyspecificity reagent, FACS + sequencing; frameworks hold sequencing errors
property_label: polyreactivity (PSR sort gate)

Reference set (5 entries):
{"monomer_sequence": "QVQLVESGGGLVQAGGSLRLSCAASGRIFYYYAMGWYRQAPGKEREFVAAITGRGGSTYYADSVKGRFTISRDNEKNTVYLQMYSLKPEDTAVYYCNAGQYFEYYGWYSRYGYWGQGTQVTVSS", "polyreactivity (PSR sort gate)": "low polyreactivity"}
{"monomer_sequence": "QDQHEESGGGLVQAGGSLRLICAASGLIFPRYAMGWYRPAPGKERELVAAITRGGSTYYADSVKGRFTISRDNAKNTVYLQMNSLKPEDTAVYYCNAELPVHWSWYDYWGQGTQVTVSS", "polyreactivity (PSR sort gate)": "low polyreactivity"}
{"monomer_sequence": "QVQLVESGGGLVQAGGSLRLRCPASGRIIGSYTMGSYRQAPGKERELVAAISFSGARTRYADSVKGRFTISRDNAKNTVYFQMNSLKAEDTAVYYCAARFTGGKYDYWGLGTQVTVSS", "polyreactivity (PSR sort gate)": "high polyreactivity"}
{"monomer_sequence": "QVQLVESGGGLVQAGGSLRISCAASGFTFVYNTMGWYRQAPGKERELVAAITSRGGSTYYADSVKGRFTISRDNAKNTVYLQMYSLKPEDTAVYYCAAKISVRTSGTRYYYWGQGTQVTVSS", "polyreactivity (PSR sort gate)": "high polyreactivity"}
{"monomer_sequence": "QVQLVESGGGLVQAGGSLRLSCAASGSIYTRYPMGWYRQAPGKERELVAAISINGGSTYYADSVKGRFTISRDNAKNTVYLHMNSLKPEDTAVYYCARHYYRWNNFLYLSGYYWGQGSQVTVSS", "polyreactivity (PSR sort gate)": "high polyreactivity"}

Query :: Form field: reported polyreactivity (PSR sort gate) of `QVQLVESGGGLVQAGGSLRVSCAASGRIIGQYAMGWSRQAPGKEWELVASISRRGGSTYYAASVKGRFTISRDNAKKTVYLQMYSLKPEDTAVYYCAKERTYGHYDYWGQGTQVTVSS`
Result :: high polyreactivity

---

assay_comment: yeast display, Sf9 membrane polyspecificity reagent, FACS + sequencing; frameworks hold sequencing errors
property_label: polyreactivity (PSR sort gate)

Reference set (4 entries):
{"monomer_sequence": "QVQLVESGGGLVQAGGSLRLSCAASGNTFYGYAMGWYRQAPGKERELVAAITKTGGSTYYADSVKGRFTISRDNAKNTVYLQMNSLKPEDTAVYYCNAARETRPRDYYWGQGTQVTVSS", "property_label": "polyreactivity (PSR sort gate)", "reading": "low polyreactivity"}
{"monomer_sequence": "QVQLVESGGGLVHAGGSLRLSCAASGSIFGVNARGWYRPAPGKERELVAAISSTGSRTYYADSVQGRFTISRDNAKNTVYLQRNSLKPEETAVYYCAAYLTRYGAYYWGQGTQVTVSS", "property_label": "polyreactivity (PSR sort gate)", "reading": "high polyreactivity"}
{"monomer_sequence": "QVQLVESGGGLVQAGGSLRLSCAASGSIYTYYAMGWYRQAPGKERELVAAINSGGRTNYADSVKGRFTISRDNAKNTVYLQMNSLKPEDTAVYYCAADGSVSYYTYYYWGQGTQVTVSS", "property_label": "polyreactivity (PSR sort gate)", "reading": "low polyreactivity"}
{"monomer_sequence": "QVQLVESGGGLVQAGGSLRLSCAASGSIFYKNAMGWYRQAPGKERELVAAISYSGGSTYYADSVKGRFTISRDNAKNTVYLQMNSLKPEDTAVYYCAAKGGAWGQGTQVTVSS", "property_label": "polyreactivity (PSR sort gate)", "reading": "high polyreactivity"}

Turning now to a further record.
Query :: Form field: reported polyreactivity (PSR sort gate) of `QVQLVESGGGLVQAGGSLRLSCAASGSIFDWYAMGWYRQAPGKEGELVAAISSGDSTYYADSVKGRFTISRDNAKKTVYLQMNSLKPEDTAVYYCAAVTKLSGIRYNYWGQGTQVTVSS`
Result :: low polyreactivity

---

assay_comment: yeast display, Sf9 membrane polyspecificity reagent, FACS + sequencing; frameworks hold sequencing errors
property_label: polyreactivity (PSR sort gate)

{"monomer_sequence": "QVQLVESGGGLVQAGGSLRLSCAASGSTFTLYVMGWYRQATGKERELVAAISSNGGRTYYADSVKGRFTISRDNAKNTVYLQMTSLKPEDTAVYYCAKLVSLAGRIYGYWGQGTQVTVSS", "polyreactivity (PSR sort gate)": "high polyreactivity"}
{"monomer_sequence": "QVQLVESGGGLVQAGGSLRLSCSASGRTSDYYAMGWYRQAPGKERELVAAITSGGSTYYADSVKGRFTISRDNAKITVYFQMNSLKPEDTAVYYCAATWYWGWVFSYTSFDYWGLGTQVTVSS", "polyreactivity (PSR sort gate)": "low polyreactivity"}
{"monomer_sequence": "QVQLVESGGGLVQAGGSLRLSCAASGSIFYAYAMGWYIQAPGKERELVAGINTRGGSTYYADSVKGRFTISRDNAKNTVYLQMNSLKPEDTAVYYCAKGTAPIPYRGRVGTSKSDYWGQGTQVTVSS", "polyreactivity (PSR sort gate)": "low polyreactivity"}
{"monomer_sequence": "QVQLVESGGGLVQAGCSLRLSCAASGNTFGYYAMGWYRQAPGKERELVAAITSSGGRTYYADSVKGRFTISRDNAKNTVYLQMNSLKPEDTAVYYCAAGRVGARYPTYRFYYWGQGTLVTVSS", "polyreactivity (PSR sort gate)": "high polyreactivity"}
{"monomer_sequence": "QVQLVESGGGLVQAGGSLRISCAASGITFRRYGMGWYRQAPGKERELVATITSSVGSRTYYADSVKGRFTISRDNAKNTVYLQMNSLKPEDTAVYYCAADHRVYDSEYWGQGTQVTVSS", "polyreactivity (PSR sort gate)": "low polyreactivity"}

Turning now to a further record.
Query :: Form field: reported polyreactivity (PSR sort gate) of `QVQLVESGGGLVQAGGSLRLSCAASGRIFNSYAMGWYIQAPGKERELVAAISSGGSTYYADSVKGRFTISRDNAKNTVYLQMNSLKPEDTAVYYCAARIWTGRGRKLGYGYDYWGQGTQVTVSS`
Result :: low polyreactivity
